Molecular target: Glucocorticoid receptor (Homo sapiens, UniProt P04150)
Sequence (P04150 whole entry): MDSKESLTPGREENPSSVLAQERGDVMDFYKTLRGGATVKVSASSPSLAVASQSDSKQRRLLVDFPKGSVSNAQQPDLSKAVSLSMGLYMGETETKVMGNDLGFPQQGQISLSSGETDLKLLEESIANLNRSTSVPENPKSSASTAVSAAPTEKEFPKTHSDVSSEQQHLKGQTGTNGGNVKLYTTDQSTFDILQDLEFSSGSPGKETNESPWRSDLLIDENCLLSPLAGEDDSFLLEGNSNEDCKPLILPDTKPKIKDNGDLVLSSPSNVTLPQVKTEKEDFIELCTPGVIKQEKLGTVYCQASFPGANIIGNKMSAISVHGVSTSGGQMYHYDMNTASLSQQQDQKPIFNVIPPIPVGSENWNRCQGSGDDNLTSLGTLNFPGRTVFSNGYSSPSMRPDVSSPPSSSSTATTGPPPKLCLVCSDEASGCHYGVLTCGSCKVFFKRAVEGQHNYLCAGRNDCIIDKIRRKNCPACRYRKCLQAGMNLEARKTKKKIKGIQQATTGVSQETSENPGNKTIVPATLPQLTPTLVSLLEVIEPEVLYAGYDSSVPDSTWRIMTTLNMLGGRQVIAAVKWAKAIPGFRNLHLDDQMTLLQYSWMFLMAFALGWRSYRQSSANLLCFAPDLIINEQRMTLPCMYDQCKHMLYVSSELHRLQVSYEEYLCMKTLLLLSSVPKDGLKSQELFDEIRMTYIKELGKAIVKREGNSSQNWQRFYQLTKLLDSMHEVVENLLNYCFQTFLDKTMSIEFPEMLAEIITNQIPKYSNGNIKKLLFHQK
Format: cell-based, HepG2
Description: Transrepression activity at GR expressed in IL-1beta- and TNFalpha-stimulated HepG2 cells assessed as inhibition of NFKB- or AP-1 mediated E-selectin transcription by luciferase reporter gene assay
pIC50: −log10 of the molar value.
parameter: pIC50

| compound | pIC50 |
| --- | --- |
| C[C@H]1c2c(cc(F)c(-c3cccc4cc[nH]c34)c2F)NC(C)(C)[C@@H]1OC(=O)Nc1ccc(C#N)cc1 | 8.00 |
| CNC(=O)O[C@@H]1[C@@H](C)c2c(cc(F)c(-c3cccc4c(Cl)c[nH]c34)c2F)NC1(C)C (racemic) | 7.92 |
